# System: OVCAR-3 ovarian
# method: NCI-60 one-dose screen, 48 h
# measurement-setup: 10 µM
Compounds without any hit were thinned out: in the full panel of roughly 83,000, 20% have a hit. Activity calls are given as the source filed them. Rule for the calls: active = growth percent below 10; inactive = the rest.
Outcome codes: true for active, false for inactive

1) O=C1/C(=C\c2ccc(F)cc2)CN(C(=O)c2ccccc2F)C/C1=C\c1ccc(F)cc1 | true
2) Nc1nc(N)c2c(ccc3nccc32)[nH]1 | false
3) CSc1nn(-c2ccccc2)c2ncnc(Oc3ccccc3)c12 | false
4) O=C1/C(=C\c2ccccc2)CN(C(=O)c2ccccc2)C/C1=C\c1ccccc1 | true
5) CN(C)c1ccc(N=C2C=CC(=O)c3ccccc32)cc1 | false
6) COc1cc(-c2cc(/C=C/C(=O)c3ccc4c(c3)OCO4)[nH]n2)cc(OC)c1OC | false
7) CN1c2ccccc2[C@]2(Cc3ccccc3)Cc3ccccc3N[C@H]12 | false
8) COc1cc(-c2nc(-c3nnc(-c4ccc(F)c(Cl)c4)o3)c3ccccn23)cc(OC)c1OC | false
9) O=C(Nc1cccc(-n2cc(-c3ccncc3)c(-c3ccc(O)c(Cl)c3)n2)c1)c1ccc(N2CCOCC2)c(C(F)(F)F)c1 | false
10) COc1cc(Cl)cc(-c2nn(-c3cccc(NC(=O)Nc4cc(C(F)(F)F)cc(C(F)(F)F)c4)c3)cc2-c2ccncc2)c1 | true
11) COc1ccc2c(c1)N(CCO)C1=C(C(=O)OC1)C2c1cc(OC)c(OC)c(OC)c1 (stereo not given) | true
12) O=C(c1ccc(Cl)cc1Cl)N1CCOCC1 | false
13) COc1ccc(-c2ccc3cc(C(=O)Nc4ccc(O)c(C(=O)/C=C/c5cc(OC)c(OC)c(OC)c5)c4)ccc3c2)cc1 | false
14) COc1ccc(Cn2c(C(N)=O)cc3c2-c2nc(N)ncc2CCC3)cc1 | false
15) CN(CCc1ccccn1)c1ccccc1 | false
16) N#CCCN1C/C(=C/c2ccc(Br)cc2)C(=O)/C(=C/c2ccc(Br)cc2)C1 | true
17) COc1ccc(-c2nc3sc(C4CC4)nn3c2/C=C2/C(=O)Nc3ccc(OC)cc32)cc1 | false
18) COc1cccc(-c2cc(-c3cccc(NS(C)(=O)=O)c3)nc(N)c2C#N)c1O | true
19) N=C(N)c1ccc(-c2ccc(-c3ccco3)o2)cc1 | false
20) COc1cc(OC)cc(-c2cncn2-c2ccc(-c3nc4cc(OC)cc(OC)c4s3)cc2)c1 | false

---

# Test system: SN12C renal
# method: NCI-60 one-dose screen, 48 h (100 = growth as untreated, 0 = no growth, -100 = all killed)
# measurement-setup: 10 µM
The panel holds about 83,000 compounds, 20% with a hit somewhere; the sample as a whole holds those more often.
measured-property: growth (%)

1. COc1ccc(-c2nn(-c3cccc(NC(=O)Nc4ccccc4)c3)cc2-c2ccncc2)cc1Cl | 31.4
2. CCOC(=O)N1C/C(=C/c2ccc(OC)cc2)C(=O)/C(=C/c2ccc(OC)cc2)C1 | 50.2
3. O=C(Nc1nc2ccccc2s1)Nc1ccc([N+](=O)[O-])cc1Cl | 78.8
4. CC/C(=C(/c1ccc(OCCN(C)C)cc1)c1ccc(OC(=O)CCC(=O)c2c(C)[nH]c(/C=C3\N=C(c4ccc[nH]4)C=C3OC)c2C)cc1)c1ccccc1 | 35.9
5. Cc1ccc(C(=O)N2C/C(=C/c3ccccc3)C(=O)/C(=C/c3ccccc3)C2)cc1 | 79.5
6. COc1ccc2c(c1)[n+]([O-])c(C#N)c(NC(=O)c1ccco1)[n+]2[O-] | 110
7. CC(C)=CCc1cc(O)cc2c1OC(C=C(C)C)C1=C2C(=O)C2=C(NCCS2(=O)=O)C1=O (centres undefined) | -59
8. O=C(O)C(SC(C(=O)O)c1ccccc1)c1ccccc1 (centres undefined) | 99.9
9. COc1cc(-c2cc(/C=C3\C(=O)Nc4cc(Cl)ccc43)[nH]n2)cc(OC)c1OC | 12.1
